# testedSystem: 5-HT2BR (Homo sapiens)
# Construct: expressed in transfected cells; host or cells: Flp-In 293 T-Rex (tetracycline inducible)
# Sequence (P41595 whole entry): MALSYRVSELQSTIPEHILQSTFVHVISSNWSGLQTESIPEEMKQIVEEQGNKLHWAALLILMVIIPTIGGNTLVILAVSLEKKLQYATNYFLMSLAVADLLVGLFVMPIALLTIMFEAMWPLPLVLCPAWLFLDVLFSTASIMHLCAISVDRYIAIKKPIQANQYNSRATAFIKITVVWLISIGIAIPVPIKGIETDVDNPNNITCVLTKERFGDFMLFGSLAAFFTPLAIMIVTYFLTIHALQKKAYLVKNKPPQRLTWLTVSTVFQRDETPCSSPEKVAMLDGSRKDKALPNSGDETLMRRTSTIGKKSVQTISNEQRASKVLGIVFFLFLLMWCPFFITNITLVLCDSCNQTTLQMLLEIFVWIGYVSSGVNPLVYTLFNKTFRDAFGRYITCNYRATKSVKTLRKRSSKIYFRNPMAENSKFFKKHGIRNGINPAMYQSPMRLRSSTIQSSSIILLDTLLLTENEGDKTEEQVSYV
# assayProcedure: Calcium flux assay (FLIPR, Fluo-4), 5-HT2BR stable cell line
# Assay type: cell-based
# assaySetup: bracketed value below EC50, read-out: 5-HT2BR pEC50 ± S.E.M (converted)
Entries and their EC50 values follow.
assayReadout: EC50

> print(dat)
                                   molecule   result
1         CCCN1CC(c2cncc(Cl)c2)=C[C@H](C)C1    20 nM
2  C[C@H]1C=C(c2c[nH]c3ncccc23)CN(CC2(C)COC2)C1  9120 nM
3  CCCCN1CC(c2cncc(C)c2)=C[C@H](C)C1 (stereo in doubt)  28.2 nM
4  C[C@H]1C=C(c2cncc(Cl)c2)CN(CC2(O)COC2)C1   126 nM
5  C[C@H]1C=C(c2c[nH]c3ncccc23)CN(CCCc2cnn(C)c2)C1   355 nM

====

Listing of entries alongside the reported EC50.
# testedSystem: 5-HT2CR (Homo sapiens, UniProt P28335)
# Sequence (P28335 33-458): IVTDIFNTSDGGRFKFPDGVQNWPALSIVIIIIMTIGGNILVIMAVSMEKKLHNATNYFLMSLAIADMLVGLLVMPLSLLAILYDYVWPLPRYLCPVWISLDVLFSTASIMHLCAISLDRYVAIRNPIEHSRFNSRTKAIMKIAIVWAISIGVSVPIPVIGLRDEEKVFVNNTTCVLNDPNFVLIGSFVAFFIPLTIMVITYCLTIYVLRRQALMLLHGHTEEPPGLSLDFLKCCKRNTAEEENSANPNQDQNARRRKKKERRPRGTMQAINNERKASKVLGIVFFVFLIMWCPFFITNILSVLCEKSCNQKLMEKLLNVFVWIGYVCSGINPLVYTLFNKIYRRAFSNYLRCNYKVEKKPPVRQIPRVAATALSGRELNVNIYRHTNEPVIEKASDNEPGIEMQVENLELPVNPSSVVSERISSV
# assayProcedure: Calcium flux assay (FLIPR, Fluo-4), 5-HT2CR stable cell line
# Format: cell-based
# assaySetup: read-out: 5-HT2CR EC50
assayReadout: EC50 (µM)

> print(dat)
                                   compound                            testedsystem  qualifieroperator  numericvalue
1  C[C@@H]1C=C(c2c[nH]c3ncccc23)CN(Cc2cnco2)C1 [compound 47]  5-HT2CR (Homo sapiens, UniProt P28335)                  >            10
2  C[C@@H]1C=C(c2c[nH]c3ncccc23)CN(C)C1 [compound 33]  5-HT2CR (Homo sapiens, UniProt P28335)                  =          3.25
3  C1=C(c2c[nH]c3ncccc23)CNCC1 [compound 49]  5-HT2CR (Homo sapiens, UniProt P28335)                  =          0.82
4  c1cnc2[nH]cc(C3CCCNC3)c2c1 (single isomer, unassigned) [compound 50]  5-HT2CR (Homo sapiens, UniProt P28335)                  >            10
5  CCCN1CC(c2cncc(Cl)c2)=C[C@H](C)C1 [Compound 16]  5-HT2CR (Homo sapiens, UniProt P28335)                  =          6.76
6  CCCCCN1CC(c2cncc(Cl)c2)=C[C@H](C)C1 [Compound 10]  5-HT2CR (Homo sapiens, UniProt P28335)                  >            10

====

# testedSystem: 5-HT2AR (Homo sapiens)
# Construct: expressed in transfected cells; host or cells: Flp-In 293 T-Rex (tetracycline inducible)
# Sequence (P28223 whole entry): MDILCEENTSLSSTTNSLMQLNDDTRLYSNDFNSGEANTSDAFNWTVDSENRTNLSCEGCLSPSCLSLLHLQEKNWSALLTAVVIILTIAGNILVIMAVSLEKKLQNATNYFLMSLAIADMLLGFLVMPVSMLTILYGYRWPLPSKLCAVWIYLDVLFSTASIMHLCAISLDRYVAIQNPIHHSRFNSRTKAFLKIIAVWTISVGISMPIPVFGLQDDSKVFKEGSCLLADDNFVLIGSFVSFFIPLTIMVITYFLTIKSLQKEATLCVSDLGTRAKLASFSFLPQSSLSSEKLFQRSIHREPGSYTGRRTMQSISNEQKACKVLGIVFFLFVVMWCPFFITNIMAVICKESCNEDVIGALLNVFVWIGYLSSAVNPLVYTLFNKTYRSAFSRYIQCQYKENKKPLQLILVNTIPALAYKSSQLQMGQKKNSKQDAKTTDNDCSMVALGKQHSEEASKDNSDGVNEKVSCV
# assayProcedure: Calcium flux assay (FLIPR, Fluo-4), 5-HT2AR stable cell line
# Type: cell-based
# assaySetup: read-out: 5-HT2AR EC50
assayReadout: EC50 (µM)

> print(dat)
                                   compound  assayreadout  qualifieroperator  numericvalue
1  CCCCN1CC(c2cncc(Cl)c2)=C[C@@H](C)C1 [Compound 11]          EC50                  =          4.24
2  C[C@@H]1C=C(c2c[nH]c3ncccc23)CN(CC2CC2)C1 [compound 45]          EC50                  =          0.45
3  C[C@H]1C=C(c2c[nH]c3ncccc23)CN(CC2(C)COC2)C1 [compound 26]          EC50                  >            10
4  C[C@H]1C=C(c2cncc(Cl)c2)CN(CCC2CCCC2)C1 [Compound 20]          EC50                  =          0.54
5  c1cnc2[nH]cc(C3CCCNC3)c2c1 (single isomer, unassigned) [compound 50]          EC50                  =          1.17
6  C[C@H]1C=C(c2cncc(Cl)c2)CN(C)C1 (stereo in doubt) [Compound 18]          EC50                  =          0.87
7  C[C@@H]1C=C(c2cncc(Cl)c2)CN(CCC2CCCC2)C1 [Compound 19]          EC50                  =          4.31
8  CCCCN1CC(c2c[nH]c3ncccc23)=C[C@@H](C)C1 [Compound 21]          EC50                  =          2.16
9  CCCCN1CC(c2c[nH]c3ncccc23)=C[C@H](C)C1 [Compound 22]          EC50                  =          2.26
